# assay comment: acute toxicity, LD50 in mice by subcutaneous injection (Up and Down method)
# Format: in vivo
# assay context: mouse, sc, drugs dissolved in physiological saline
attribute measured: LD50

Would you please look over these solved cases?
# compound, LD50
data = [
    ("CC1(C)CN(CCCc2ccccc2)CCN1C(=O)c1ccco1.Cl", "> 500 mg/kg"),
    ("CCOc1ccc(CCCN2CCN(C(=O)c3ccco3)CC2)cc1.Cl", "400 mg/kg"),
]

# context switch: different compound, same LD50
Request: Requested field: LD50. Item: C[C@@H]1CN(CCCc2ccccc2)[C@@H](C)CN1C(=O)c1ccco1.Cl (relative stereo)
Result: > 500 mg/kg

----------
# assay comment: acute toxicity, LD50 in mice by subcutaneous injection (Up and Down method)
# Type: in vivo
# assay context: mouse, sc, drugs dissolved in physiological saline
# reported LD50; entries follow

The cases that follow already have their LD50 on record.
# compound, recorded result
measured = [
    ("CC1CN(CCCc2ccccc2)CCN1C(=O)c1ccco1.Cl (stereo not drawn)", "> 750 mg/kg"),
    ("Cc1cccc(CCCN2C[C@@H](C)N(C(=O)c3ccco3)C[C@@H]2C)c1.Cl (relative stereo)", "> 500 mg/kg"),
]

Request: Please report the recorded LD50 for Cc1ccccc1CCCN1C[C@@H](C)N(C(=O)c2ccco2)C[C@@H]1C.Cl (relative stereo) .
Result: > 750 mg/kg
